Biological target: T1, human CD112R expressed on Jurkat cells (human, UniProt Q6DKI7 1-326)
T1 construct: whole, on cells; Used for both Jurkat-CD112R OE cells and wild type Jurkat cells; which cells is said under assay; also called PVRIG; Jurkat-CD112R OE
T1 sequence (looked up): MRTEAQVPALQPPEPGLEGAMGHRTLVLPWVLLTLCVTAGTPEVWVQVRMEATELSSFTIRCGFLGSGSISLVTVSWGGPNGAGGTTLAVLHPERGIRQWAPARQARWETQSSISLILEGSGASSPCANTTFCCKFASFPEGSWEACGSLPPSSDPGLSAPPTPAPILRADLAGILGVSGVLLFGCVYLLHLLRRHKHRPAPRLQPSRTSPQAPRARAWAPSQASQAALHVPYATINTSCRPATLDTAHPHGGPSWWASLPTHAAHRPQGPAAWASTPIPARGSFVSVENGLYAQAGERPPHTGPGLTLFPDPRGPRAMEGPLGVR
Test: flow cytometry, wild type Jurkat cells, 0.63 ug/mL antibody
Property: gMFI (fold increase over isotype); scope: individual binders

{"columns": ["binder", "gMFI (fold increase over isotype)"],
 "data": [
  ["Antibody 34 (antibody, V domains shown, Purified as IgG; compared with an IgG1 isotype control and detected with anti-human IgG Fc; also called antibody clone number 34; clone 34) VH: QVQLVQSGAEVKKPGSSVKVSCKASGGTFSSAAISWVRQAPGQGLEWMGGIFPISGHANYAQKFQGRVTITADESTSTAYMELSSLRSEDTAVYYCARDTGRGYTRHFWFDPWGQGTLVTVSS VL: DIQMTQSPSSLSASVGDRVTITCRASQSISSYLNWYQQKPGKAPKLLIYAASSLQSGVPSRFSGSGSGTDFTLTISSLQPEDFATYYCQQSDILYTFGGGTKVEIK", "3.8 fold increase over isotype"]
]}

Request: What value of gMFI (fold increase over isotype) has been reported for the following binder? Antibody 32 (antibody, V domains shown, Purified as IgG; compared with an IgG1 isotype control and detected with anti-human IgG Fc; also called antibody clone number 32; parent clone 32) VH: QVQLVQSGAEVKKPGSSVKVSCKASGGTFSSYAISWVRQAPGQGLEWMGGIIPISGTANYAQKFQGRVTITADESTSTAYMELSSLRSEDTAVYYCARDTGRGYTRHFWFDPWGQGTLVTVSS VL: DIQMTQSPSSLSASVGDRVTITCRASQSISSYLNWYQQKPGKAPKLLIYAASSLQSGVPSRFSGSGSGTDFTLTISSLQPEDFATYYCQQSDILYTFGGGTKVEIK
Response: 2.5 fold increase over isotype

Request: What value of gMFI (fold increase over isotype) has been reported for the following binder? Antibody 33 (antibody, V domains shown, Purified as IgG; compared with an IgG1 isotype control and detected with anti-human IgG Fc; also called antibody clone number 33; clone 33) VH: QVQLVQSGAEVKKPGSSVKVSCKASGGTFGNYAISWVRQAPGQGLEWMGGIIPIPGIANYAQKFQGRVTITADESTSTAYMELSSLRSEDTAVYYCARDTGRGYTRHFWFDPWGQGTLVTVSS VL: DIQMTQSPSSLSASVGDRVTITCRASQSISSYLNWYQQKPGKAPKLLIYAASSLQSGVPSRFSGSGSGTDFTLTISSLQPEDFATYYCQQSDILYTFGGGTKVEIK
Response: 3.4 fold increase over isotype
